# System: RT-112
# Assay Details: CCK8 antiproliferative assay, bladder cancer cells RT-112
# Assay type: cell-based
# Condition Info: Homo sapiens, treatment for 48 h
Reported Property: IC50

Which measured IC50 value corresponds to `COc1cc(N(CCCBr)S(=O)(=O)c2cccc3cccnc23)cc(OC)c1OC` ?
> 40 µM

Which measured IC50 value corresponds to CCN1CCN(C(=S)SCCCN(c2cc(OC)c(OC)c(OC)c2)S(=O)(=O)c2cccc3cccnc23)CC1 [Compound 13b] ?
6.8 µM

Which measured IC50 value corresponds to `COc1cc(NS(=O)(=O)c2cccc3cccnc23)cc(OC)c1OC` ?
> 40 µM

Which measured IC50 value corresponds to O=c1[nH]cc(F)c(=O)[nH]1 [Compound 5-Fu, 5-fluorouracil, reference compound] ?
13.6 µM

Which measured IC50 value corresponds to COc1cc(N(CCCSC(=S)N2CCN(CCO)CC2)S(=O)(=O)c2cccc3cccnc23)cc(OC)c1OC [Compound 13c] ?
4.1 µM

Which measured IC50 value corresponds to COc1cc(N(CCCSC(=S)N2CCN(C(C)=O)CC2)S(=O)(=O)c2cccc3cccnc23)cc(OC)c1OC [Compound 13d] ?
0.7 µM

Which measured IC50 value corresponds to COc1cc(N(CCCSC(=S)N2CCN(C)CC2)S(=O)(=O)c2cccc3cccnc23)cc(OC)c1OC [Compound 13a] ?
7.8 µM

Origin of the recorded values: paper PMC6713100
